Cited source: patent US7998940B2

# Test system: full length human vWF (SEQ ID NO 7)
# assay_details: dot blot KD determination and extent of binding, full length human vWF
# protocol_conditions: Phase 4 and 5 modification; full length human vWF; read-out: KD
Oligonucleotides are written 5' to 3', each unit as a sugar letter and its base; * is a phosphorothioate linkage, no mark a phosphodiester; rarer units and linkages stand in square brackets, end groups in braces. Plain capitals give the bases only. [invdT] = inverted (3'-3') thymidine; d = 2'-deoxy (DNA); m = 2'-O-methyl
endpoint: Kd (nM)
Report the value in nM with no unit label.

# example entries with known answers
{"columns": ["substance", "measurement_target", "experimental_result"],
 "data": [
  ["mCmGmUdGdCdAmGmUmGmCmCmUmUmCmGmGmCdCmG-s-TmGdCdGdGTmGmCdCmUdCdCmGmUmCmAmCmG-3T (mCmGmUdGdCdAmGmUmGmCmCmUmUmCmGmGmCdCmG*dTmGdCdGdGdTmGmCdCmUdCdCmGmUmCmAmCmG[invdT]; aptamer) [ARC1529]", "full length human vWF (SEQ ID NO 7)", 12.3],
  ["mCmGmGmCdCmG-s-TmGdCdGdGTmGmCdCmUdCdCmGmUmCmAmCPEGmGmUdGdCdAmGmUmGmCmCmG-3T (CGGCCGTGCGGTGCCUCCGUCACGUGCAGUGCCGT; chemistry not fully specified) [ARC1533]", "full length human vWF (SEQ ID NO 7)", 4],
  ["dGdGdCdGTdGdCdAdGTdGdCdCTTdCdGdGdCdCdG-s-TdGdCdGdGTdGdCdCTdCdCdGTdCdAdCdGdCdC-3T (dGdGdCdGdTdGdCdAdGdTdGdCdCdTdTdCdGdGdCdCdG*dTdGdCdGdGdTdGdCdCdTdCdCdGdTdCdAdCdGdCdC[invdT]) [ARC1759]", "full length human vWF (SEQ ID NO 7)", 0.7]
]}

QUERY: Name the recorded Kd for mCmGmUdGdCdAmGmUmGmCmCmUmUmUmGmGmCdCmG-s-TmGdCdGdGTmGmCdCmUdCdCmGmUmCmAmCmG-3T (mCmGmUdGdCdAmGmUmGmCmCmUmUmUmGmGmCdCmG*dTmGdCdGdGdTmGmCdCmUdCdCmGmUmCmAmCmG[invdT]; aptamer) [ARC1530] .
RESULT: 15

---

# Tested on: full length human vWF (SEQ ID NO 7)
# assay_details: dot blot KD determination and extent of binding, full length human vWF;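 note: dot blot binding of aptamers to full length human vWF across a protein titration, incubated 30 minutes at room temperature in 1x DPBS with BSA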
# protocol_conditions: Phase 2 modification; full length human vWF; read-out: KD
pKd: −log10 of the molar value. Oligonucleotides are written 5' to 3', each unit as a sugar letter and its base; * is a phosphorothioate linkage, no mark a phosphodiester; rarer units and linkages stand in square brackets, end groups in braces. Plain capitals give the bases only. [invdT] = inverted (3'-3') thymidine; d = 2'-deoxy (DNA); m = 2'-O-methyl
Kindly return Condition met if reported pKd is no lower than 8; return Condition not met if it is lower.

Examples with answers:
{"columns": ["substance", "measurement_target", "answer_label"],
 "data": [
  ["mGmGmCmGmUdG-s-dC-s-dAmGmUmGmCmCmUmUmCmGmGmC-s-dCmGTmGdC-s-dG-s-dGTmGmCdCmUdC-s-dCmGmUmCmAmCmGmCmC-3T (mGmGmCmGmUdG*dC*dAmGmUmGmCmCmUmUmCmGmGmC*dCmGdTmGdC*dG*dGdTmGmCdCmUdC*dCmGmUmCmAmCmGmCmC[invdT]) [ARC1344]", "full length human vWF (SEQ ID NO 7)", "Condition met"],
  ["mGmGmCmGmUdGdCdAmGmUmGmCmCmUmUmCmGmGmCdCdGTdGdCdGdGTdGdCdCTdCdCdGTdCmAmCmGmCmC-3T (mGmGmCmGmUdGdCdAmGmUmGmCmCmUmUmCmGmGmCdCdGdTdGdCdGdGdTdGdCdCdTdCdCdGdTdCmAmCmGmCmC[invdT]; aptamer) [ARC1341]", "full length human vWF (SEQ ID NO 7)", "Condition not met"],
  ["dGdGdCdGTdGdCdAmGmUdGdCdCTTdCdGdGdCdCmGTmGdCdGdGTdGdCdCTdCdCmGmUmCdAdCdGdCdC-3T (dGdGdCdGdTdGdCdAmGmUdGdCdCdTdTdCdGdGdCdCmGdTmGdCdGdGdTdGdCdCdTdCdCmGmUmCdAdCdGdCdC[invdT]; aptamer) [ARC1339]", "full length human vWF (SEQ ID NO 7)", "Condition met"]
]}

Consider now this further substance.
QUERY: Has mGmGmCmGmUdG-s-dCdAmGmUmGmCmCmUmUmCmGmGmC-s-dCmGTmGdCdG-s-dGTmGmCdCmUdC-s-dCmGmUmCmAmCmGmCmC-3T (mGmGmCmGmUdG*dCdAmGmUmGmCmCmUmUmCmGmGmC*dCmGdTmGdCdG*dGdTmGmCdCmUdC*dCmGmUmCmAmCmGmCmC[invdT]) [ARC1343] a recorded pKd greater than or equal to 8?
RESULT: Condition not met
